Every entry's value here was drawn from paper PMC9304322.

Test: Pharmacokinetic analysis, plasma and brain
Format: in vivo, ICR (CD-1) male mice
Details: male, ICR (CD-1), mouse, brain, po, 30 mg/Kg, P.O., Time 2 h, individual animals; read-out: B/P, Brian/Plasma
measured_metric: Kp at 2 h
Lab note: jot down the number only; don't add units.

CC(=O)Nc1ccc(C2=Nc3ccc(Cl)cc3OC2)cc1 ... 99.4

Read the next record carefully.
(Q) Tell me the measured Kp at 2 h of `Clc1ccc2c(c1)OCC(c1ccc(-c3ccccc3)cc1)=N2` , please.
(A) 7.84

* * *

Test: Pharmacokinetic analysis, plasma and brain
Assay type: in vivo, ICR (CD-1) male mice
Settings: male, ICR (CD-1), mouse, brain, po, 30 mg/Kg, P.O., Time 24 h, individual animals; read-out: B/P, Brian/Plasma
measured_metric: Kp at 24 h
Lab note: jot down the number only; don't add units.

(Q) Tell me the measured Kp at 24 h of Clc1ccc2c(c1)OCC(c1ccc(-c3ccccc3)cc1)=N2 [CA39] , please.
(A) 11.6
